- System: Mus musculus
- protocol.description: Antinociceptive activity in sc dosed Swiss Albino mouse by hotplate test
- Type: functional
Binary label based on ED50 with cut-off 30 mg/kg: below gives TRUE, not below gives FALSE.

Lab note: confirm whether the reported ED50 for this compound is below 30 mg/kg, equality not counting. compound: Cc1cccc(C)c1NC(=O)[C@H](N)C(C)C TRUE

Moving on to the next compound: Cc1cc(Cl)cc(C)c1NC(=O)[C@@H](C)N TRUE

Would you kindly repeat that for Cc1cccc(C)c1NC(=O)[C@H](N)CC(C)C ? TRUE

What about Cc1cc(Cl)ccc1NC(=O)[C@@H](C)N ? FALSE

Try Cc1cc(Cl)ccc1NC(=O)[C@H](N)C(C)C next. TRUE

Param item: Cc1cccc(C)c1NC(=O)[C@@H](N)CC(C)C TRUE

Another compound: Cc1cccc(C)c1NC(=O)[C@@H](C)N [(R)-TOCAINIDE] FALSE

Query Cc1cc(Cl)cc(C)c1NC(=O)[C@H](C)N next TRUE

Param item: Cc1cc(Cl)ccc1NC(=O)[C@H](C)N FALSE

What do you have for Cc1cc(Cl)ccc1NC(=O)[C@@H](N)C(C)C ? TRUE
